system.name: UniProt O14684
measurement.protocol: mPGES-1 inhibitory activity test
Format: biochemical
test.parameters: 100 nM test compound
# inhibition at 0.1 µM per entry
quantity: inhibition at 0.1 µM (%)

| structure | system.name | quantity | quantity.unit | numeric.readout |
| --- | --- | --- | --- | --- |
| CC(C)(C)C(=O)NCc1ccc(C(F)(F)F)c(C(=O)Nc2cccc3c2cnn3-c2ccc(C(F)(F)F)nc2)c1 | UniProt O14684 | inhibition at 0.1 µM | % | 78 |
| CC(C)(C)C(=O)NCc1ccc(C(F)(F)F)c(C(=O)Nc2cccc3c2cnn3-c2ccc(OC(F)(F)F)cc2)c1 | UniProt O14684 | inhibition at 0.1 µM | % | 83 |
| Cc1cc(-n2ncc3c(NC(=O)c4cc(CNC(=O)C5CCCC5)ccc4Cl)cccc32)ccn1 | UniProt O14684 | inhibition at 0.1 µM | % | 88 |
| Cc1ccc(-n2ncc3c(NC(=O)c4cc(CNC(=O)C5(C(F)(F)F)CC5)ccc4Cl)cccc32)cc1C(F)(F)F | UniProt O14684 | inhibition at 0.1 µM | % | 98 |
| Cc1cc(-n2ncc3c(NC(=O)c4cc(CNC(=O)C(C)(C)C)ccc4C(F)(F)F)cccc32)cc(C)n1 | UniProt O14684 | inhibition at 0.1 µM | % | 96 |
| O=C(Nc1cccc2c1cnn2-c1ccc(C(F)(F)F)nc1)c1cc(CNS(=O)(=O)C2CC2)ccc1Cl | UniProt O14684 | inhibition at 0.1 µM | % | 95 |
| COc1ccc(-n2ncc3c(NC(=O)c4cc(CNC(=O)C5(O)CC5)ccc4Cl)cccc32)cc1C(F)(F)F | UniProt O14684 | inhibition at 0.1 µM | % | 97 |
| CC(C)(CO)C(=O)NCc1ccc(Cl)c(C(=O)Nc2cccc3c2cnn3-c2ccc(F)cc2)c1 | UniProt O14684 | inhibition at 0.1 µM | % | 86 |
| CC(C)(C)C(=O)NCc1ccc(C(F)(F)F)c(C(=O)Nc2cccc3c2cnn3-c2cccc(OC(F)(F)F)c2)c1 | UniProt O14684 | inhibition at 0.1 µM | % | 84 |

---

# IC50 per entry
system.name: human mPGES-1 (Homo sapiens (Human))
Sequence (O14684 whole entry): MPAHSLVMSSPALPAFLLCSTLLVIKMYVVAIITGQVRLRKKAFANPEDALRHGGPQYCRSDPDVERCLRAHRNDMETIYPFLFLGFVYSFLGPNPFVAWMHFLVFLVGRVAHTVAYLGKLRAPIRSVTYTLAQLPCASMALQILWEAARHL
measurement.protocol: mPGES-1 inhibitory activity test
Format: biochemical
test.parameters: microsomes of CHO-K1 cells expressing human mPGES-1, PGH2 1 μM, PGE2 by HTRF; read-out: mPGES-1 inhibition (IC50 nM)
quantity: IC50 (nM)

| structure | quantity | quantity.unit | numeric.readout |
| --- | --- | --- | --- |
| CC(C)(C)OC(=O)N1CCC(C(=O)NCc2ccc(Cl)c(C(=O)Nc3cccc4c3cnn4-c3ccc(C(F)(F)F)cc3)c2)CC1 | IC50 | nM | 1.4 |
| Cc1ccc(-n2ncc3c(NC(=O)c4cc(CNC(=O)C5CC5)ccc4Cl)cccc32)cc1 | IC50 | nM | 1.3 |
| O=C(Nc1cccc2c1cnn2-c1ccc(C(F)(F)F)cc1)c1cc(CNC(=O)C2CCCC2)ccc1Cl | IC50 | nM | 5.5 |
| CC(C)(C)C(=O)NCc1ccc(Cl)c(C(=O)Nc2cccc3c2cnn3-c2ccc(C#N)cc2)c1 | IC50 | nM | 1.3 |
| CCOc1ccc(-n2ncc3c(NC(=O)c4cc(CNC(=O)C(C)(C)C)ccc4Cl)cccc32)cc1 | IC50 | nM | 2.2 |
